- target-system: AKT (Homo sapiens, UniProt Q9Y243)
- Construct: Kinases are expressed as either kinase domains or full length constructs; made in house
- Sequence (Q9Y243 whole entry, the tested form may be a part): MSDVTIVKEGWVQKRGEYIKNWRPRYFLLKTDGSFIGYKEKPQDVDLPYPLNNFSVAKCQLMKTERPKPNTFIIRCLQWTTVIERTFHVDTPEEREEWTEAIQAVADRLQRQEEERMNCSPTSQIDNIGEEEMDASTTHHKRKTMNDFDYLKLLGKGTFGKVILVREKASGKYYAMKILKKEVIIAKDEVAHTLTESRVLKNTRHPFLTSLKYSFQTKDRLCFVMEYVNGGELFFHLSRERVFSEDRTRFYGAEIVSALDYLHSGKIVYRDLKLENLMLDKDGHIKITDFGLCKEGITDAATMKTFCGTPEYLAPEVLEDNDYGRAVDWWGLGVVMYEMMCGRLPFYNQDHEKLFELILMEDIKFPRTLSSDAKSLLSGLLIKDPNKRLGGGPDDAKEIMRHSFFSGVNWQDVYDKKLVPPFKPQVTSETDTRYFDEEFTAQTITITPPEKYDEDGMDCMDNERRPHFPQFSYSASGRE
- method: Kinase inhibition assay (33P transfer), AKT
- Format: biochemical
- conditions: Table 2, kinase inhibition class; read-out: AKT3-1
Reported IC50 values follow for various molecules

Completed entries (count: 4):
COc1cc(Nc2ncnc(-n3cc(OC(C)=O)c4ccccc43)n2)cc(OC)c1OC [Compound 205]
> 10.3 µM
CN(c1cccc(Cl)c1)c1ncnc(NCCOCCO)n1 [Compound 746]
> 13.9 µM
COc1cc(Nc2ncnc(Nc3cc(C(C)(C)C)[nH]n3)n2)cc(OC)c1OC [Compound 313]
> 11.3 µM
COc1cc(Nc2ncnc(Nc3ccc4c(cnn4Cc4ccccc4)c3)n2)cc(OC)c1OCCN1CCOCC1 [Compound 559]
> 7.72 µM

Okay, now this molecule:
Query: Give its IC50 value. Item: COc1cc(Nc2ncnc(Nc3ccc4ccccc4c3)n2)cc(OC)c1OC [Compound 96]
Result: > 11.2 µM
